# target-or-system: T1, Ep-CAM (UniProt P16422 24-265, limits assumed)
# T1 sequence (looked up): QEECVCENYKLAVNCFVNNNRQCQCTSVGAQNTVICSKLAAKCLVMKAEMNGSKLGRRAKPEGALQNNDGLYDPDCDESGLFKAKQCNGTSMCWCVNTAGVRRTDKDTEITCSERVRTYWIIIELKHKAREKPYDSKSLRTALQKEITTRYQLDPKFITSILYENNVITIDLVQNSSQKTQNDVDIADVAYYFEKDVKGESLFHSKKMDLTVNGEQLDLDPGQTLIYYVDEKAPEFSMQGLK
# measurement-notes: Biacore, Fab periplasmic extract on immobilised Epcam
This section presents binders with their documented fold difference in affinity vs original values.
Give the quantity in fold, number only.

ING-1 Fab, heavy chain W50T (Fab, V domains shown, Fab in periplasmic extract) VH: QIQLVQSGPELKKPGETVKISCKASGYTFTKYGMNWVKQAPGKGLKWMGTINTYTEEPTYGDDFKGRFAFSLETSASTANLQINNLKSEDTATYFCARFGSAVDYWGQGTSVTVSS VL: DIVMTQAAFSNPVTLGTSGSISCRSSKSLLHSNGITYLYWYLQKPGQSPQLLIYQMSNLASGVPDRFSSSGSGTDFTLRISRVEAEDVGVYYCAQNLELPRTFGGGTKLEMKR :: 0.03
ING-1 Fab, heavy chain G33T (Fab, V domains shown, Fab in periplasmic extract) VH: QIQLVQSGPELKKPGETVKISCKASGYTFTKYTMNWVKQAPGKGLKWMGWINTYTEEPTYGDDFKGRFAFSLETSASTANLQINNLKSEDTATYFCARFGSAVDYWGQGTSVTVSS VL: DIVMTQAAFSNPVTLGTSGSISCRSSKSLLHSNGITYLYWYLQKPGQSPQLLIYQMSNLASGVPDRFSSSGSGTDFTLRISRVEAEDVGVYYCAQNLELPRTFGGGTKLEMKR :: 0.01

Now for another entry.
For record ING-1 Fab, heavy chain Y32I (Fab, V domains shown, Fab in periplasmic extract) VH: QIQLVQSGPELKKPGETVKISCKASGYTFTKIGMNWVKQAPGKGLKWMGWINTYTEEPTYGDDFKGRFAFSLETSASTANLQINNLKSEDTATYFCARFGSAVDYWGQGTSVTVSS VL: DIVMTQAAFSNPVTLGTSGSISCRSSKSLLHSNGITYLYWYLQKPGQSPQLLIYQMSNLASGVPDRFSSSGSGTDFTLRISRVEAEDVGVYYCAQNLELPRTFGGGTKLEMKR the listed fold difference in affinity vs original is 0.03

meta.source: patent US20110118131A1
